Experiment: Binding affinity to Mycobacterium tuberculosis CYP124A1 by UV-visible spectrophotometry
Conditions: read-out: Kd(app)
pKd: −log10 of the molar value.
Property measured: pKd

- C=C(C)CCC[C@@H](C)[C@H]1CC[C@H]2[C@@H]3CC=C4C[C@@H](O)CC[C@]4(C)[C@H]3CC[C@]12C: 6.82

* * *

// values below are reported Kcat(app)
Tested on: Mycobacterium tuberculosis
Assay: Activity of Mycobacterium tuberculosis CYP142A1 assessed as apparent turnover number at 50 uM incubated for 1 hr at 25 degC by GC-MS method
Property measured: Kcat(app) (s⁻¹)

• C=C(C)CCC[C@@H](C)[C@H]1CC[C@H]2[C@@H]3CC=C4C[C@@H](O)CC[C@]4(C)[C@H]3CC[C@]12C = 0.0183
• CC(C)CCC[C@@H](C)[C@H]1CC[C@H]2[C@@H]3CC=C4C[C@@H](O)CC[C@]4(C)[C@H]3CC[C@]12C = 0.278
• C=CCCC[C@@H](C)[C@H]1CC[C@H]2[C@@H]3CC=C4C[C@@H](O)CC[C@]4(C)[C@H]3CC[C@]12C = 0.0183
• CC(C)=CCC[C@@H](C)[C@H]1CC[C@H]2[C@@H]3CC=C4C[C@@H](O)CC[C@]4(C)[C@H]3CC[C@]12C = 0.115
• CC(Br)CCC[C@@H](C)[C@H]1CC[C@H]2[C@@H]3CC=C4C[C@@H](O)CC[C@]4(C)[C@H]3CC[C@]12C (mixture of isomers) = 0.299
• CC(Cl)CCC[C@@H](C)[C@H]1CC[C@H]2[C@@H]3CC=C4C[C@@H](O)CC[C@]4(C)[C@H]3CC[C@]12C (mixture of isomers) = 0.15
• CC(C)CCC[C@@H](C)[C@H]1CC[C@H]2[C@@H]3CC[C@@H]4C[C@@H](O)CC[C@]4(C)[C@H]3CC[C@]12C = 0.12
• CC(C)=CCC[C@@H](C)[C@H]1CC[C@@]2(C)C3=C(CC[C@]12C)[C@@]1(C)CC[C@H](O)C(C)(C)[C@@H]1CC3 = 0.368
• CCCCC[C@@H](C)[C@H]1CC[C@H]2[C@@H]3CC=C4C[C@@H](O)CC[C@]4(C)[C@H]3CC[C@]12C = 0.0317
• CCC(C)CCC[C@@H](C)[C@H]1CC[C@H]2[C@@H]3CC=C4C[C@@H](O)CC[C@]4(C)[C@H]3CC[C@]12C (mixture of isomers) = 0.163

* * *

Collected Kcat(app) values appear next to each entry.
Target: Steroid C26-monooxygenase (Mycobacterium tuberculosis, UniProt P9WPP1)
Assay: Activity of Mycobacterium tuberculosis CYP125A1 assessed as apparent turnover number at 50 uM incubated for 1 hr at 25 degC by GC-MS method
Property measured: Kcat(app) (s⁻¹)

- CCC(C)CCC[C@@H](C)[C@H]1CC[C@H]2[C@@H]3CC=C4C[C@@H](O)CC[C@]4(C)[C@H]3CC[C@]12C (mixture of isomers): 0.317
- CC(C)CCC[C@@H](C)[C@H]1CC[C@H]2[C@@H]3CC=C4C[C@@H](O)CC[C@]4(C)[C@H]3CC[C@]12C: 0.467
- C=C(C)CCC[C@@H](C)[C@H]1CC[C@H]2[C@@H]3CC=C4C[C@@H](O)CC[C@]4(C)[C@H]3CC[C@]12C: 0.178
- CC(C)=CCC[C@@H](C)[C@H]1CC[C@H]2[C@@H]3CC=C4C[C@@H](O)CC[C@]4(C)[C@H]3CC[C@]12C: 0.2215
- CC=C(C)CCC[C@@H](C)[C@H]1CC[C@H]2[C@@H]3CC=C4C[C@@H](O)CC[C@]4(C)[C@H]3CC[C@]12C (mixture of isomers): 0.135
- C=CCCC[C@@H](C)[C@H]1CC[C@H]2[C@@H]3CC=C4C[C@@H](O)CC[C@]4(C)[C@H]3CC[C@]12C: 0.0367
- CC(C)CCC[C@@H](C)[C@H]1CC[C@H]2[C@@H]3CC[C@@H]4C[C@@H](O)CC[C@]4(C)[C@H]3CC[C@]12C: 0.2373
- CC(C)=CCC[C@@H](C)[C@H]1CC[C@@]2(C)C3=C(CC[C@]12C)[C@@]1(C)CC[C@H](O)C(C)(C)[C@@H]1CC3: 0.1728
- CCCCC[C@@H](C)[C@H]1CC[C@H]2[C@@H]3CC=C4C[C@@H](O)CC[C@]4(C)[C@H]3CC[C@]12C: 0.085
- CC(Cl)CCC[C@@H](C)[C@H]1CC[C@H]2[C@@H]3CC=C4C[C@@H](O)CC[C@]4(C)[C@H]3CC[C@]12C (mixture of isomers): 0.122
- CC(Br)CCC[C@@H](C)[C@H]1CC[C@H]2[C@@H]3CC=C4C[C@@H](O)CC[C@]4(C)[C@H]3CC[C@]12C (mixture of isomers): 0.3037
